# tested-on: Cathepsin D (EC 3.4.23.5 from bovine spleen) (Bos taurus)
# Sequence (P80209 45-390): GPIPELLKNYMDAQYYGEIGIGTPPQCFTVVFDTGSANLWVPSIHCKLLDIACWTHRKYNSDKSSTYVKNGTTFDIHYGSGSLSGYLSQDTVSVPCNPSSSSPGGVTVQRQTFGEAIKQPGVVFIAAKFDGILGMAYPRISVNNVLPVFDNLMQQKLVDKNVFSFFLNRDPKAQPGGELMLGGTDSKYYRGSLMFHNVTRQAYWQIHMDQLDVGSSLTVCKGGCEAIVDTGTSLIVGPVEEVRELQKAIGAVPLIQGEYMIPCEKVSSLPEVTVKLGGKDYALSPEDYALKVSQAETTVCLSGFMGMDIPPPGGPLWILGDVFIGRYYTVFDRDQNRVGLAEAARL
Numbered stars: 1 amine (or outer) side, 2 acyl side, 3 side chain; on linkers, the order of the positions; unused ones are H or OH. Square brackets hold non-standard residues; d marks the D form. Peptide text beside a SMILES is read from it. * marks the point of attachment. ξ: configuration not given here. Gly(1-amidinopiperidin-4-yl) = N=C(N)N1CCC([C@H](N)C(=O)O)CC1; X1 = CC(C)c1oc([C@H](CO)N[*:1])nc1C(=O)[*:2]; Pro(3R-Ph) = O=C(O)[C@H]1NCC[C@@H]1c1ccccc1; Tic = O=C(O)[C@@H]1Cc2ccccc2CN1; Cha = N[C@@H](CC1CCCCC1)C(=O)O; ξDisc = O=C(O)C1NCc2ccccc21; Nle = CCCC[C@H](N)C(=O)O; X2 = OCCOCCN(Cc1ccccc1)*; X6 = OCCN(CCc1ccccc1)*; NHBn = c1ccc(CN*)cc1
quantity: Stability (Arbitrary units) Cath D 4 h
Respond numerically; units are Arbitrary units and should not be typed.

query: Fill in reported Stability (Arbitrary units) Cath D 4 h for this entry: CSCC[C@H](NC(=O)[C@@H]1Cc2ccccc2CN1C(=O)[C@H](CCCNC(=N)N)NC(=O)[C@H](CC1CCCCC1)NC(C)=O)C(=O)N(CCOCCO)Cc1ccccc1 [Compound P99, Ac-Cha-Arg-Tic-Met-N(Bn)CH2CH2OCH2CH2OH] (Ac-[Cha]R[Tic]M-X2)
result: 107

query: Fill in reported Stability (Arbitrary units) Cath D 4 h for this entry: CSCC[C@H](NC(=O)[C@@H]1Cc2ccccc2CN1C(=O)[C@H](CCCNC(=N)N)NC(=O)[C@H](CC1CCCCC1)NC(C)=O)C(=O)N(CCO)CCc1ccccc1 [Compound P85, Ac-Cha-Arg-Tic-Met-N(CH2CH2OH)CH2CH2Ph] (Ac-[Cha]R[Tic]M-X6)
result: 104

query: Fill in reported Stability (Arbitrary units) Cath D 4 h for this entry: CCCC[C@H](NC(=O)[C@@H]1Cc2ccccc2CN1C(=O)[C@@H](NC(=O)[C@H](CC1CCCCC1)NC(C)=O)C1CCN(C(=N)N)CC1)C(=O)NCc1ccccc1 [Compound P68, Ac-Cha-Gpg-Tic-Nle-N(H)Bn] (Ac-[Cha][Gly(1-amidinopiperidin-4-yl)][Tic][Nle]-NHBn)
result: 105

query: Fill in reported Stability (Arbitrary units) Cath D 4 h for this entry: CCCC[C@H](NC(=O)C1c2ccccc2CN1C(=O)[C@@H](NC(=O)[C@H](CC1CCCCC1)NC(C)=O)C1CCN(C(=N)N)CC1)C(=O)N1CC[C@H](c2ccccc2)[C@H]1C(=O)N[C@@H](CO)c1nc(C(=O)N(C)C)c(C(C)C)o1 (stereo partly drawn) [Compound P81-1] (Ac-[Cha][Gly(1-amidinopiperidin-4-yl)][ξDisc][Nle][Pro(3R-Ph)][X1]-NMe2)
result: 106
